test system: Saccharomyces cerevisiae; experiment: transcriptional activation domain activity (GFP:mCherry ratio, weighted mean of sorted bins, harmonized to initial dataset scale) (arbitrary fluorescence ratio units); higher = stronger transcriptional activation; conditions: beta-estradiol 1 µM; induction time 4 h
Parameter threshold = 60000. Response is 1.0 when transcriptional activation domain activity meets or exceeds it, else 0.0.

>>> class_assignment("PKPVPEQEMKDAAEKPEPEETKAAGEVKPEDAMEVDQTSKPAKSKKGKIVKRR")
0.0
>>> class_assignment("MVDSRMLGETETGLFLSFIFFRIIFILVLPYLASCSKYVHLLFLYCFLLLRFF")
0.0
>>> class_assignment("EFEVDSIDELVLILKESEQSDMLRRIGYCRKRMMSLLRLLVTKVDVVKTITKR")
0.0
>>> class_assignment("CKSFITVLMDLPHFTTSCVWVFFFSSFCFLWENASLLYRRLILSFFSFSFLFP")
1.0
>>> class_assignment("KWKEKRSRNDEADGERGAERKPRKRSRSPRRRKEPEAAPERKQQEKPASAAPA")
0.0
>>> class_assignment("FGVGMVPLGCQWACHLVALMVLFDVGWLCISRFILLDSMLLFFTFLTVFCMTK")
0.0
>>> class_assignment("VPSDSRRCRLKGVTVFTWWRNVFRQALRHQRWICLQYITSFEREWRSVLAIVR")
0.0
>>> class_assignment("MAKKGSASTDKKAADKSDKKGKAKATTDDGEEKQAKGKGSLKAATAVNVRHIL")
0.0
>>> class_assignment("AEPSIYSNLFLDARLPNNANSTTGLNDNDYNLDDTNNDNTNSMQSILEDFVSS")
1.0

###

system: Saccharomyces cerevisiae; assay: transcriptional activation domain activity (GFP:mCherry ratio, weighted mean of sorted bins, harmonized to initial dataset scale) (arbitrary fluorescence ratio units); higher = stronger transcriptional activation; settings: beta-estradiol 1 µM; induction time 4 h
# transcriptional activation domain activity binned as 0 (below 40000), 1 (40000 to below 60000), 2 (60000 or more)

>>> class_assignment("PLYAYTIWSWLCQGVYFTLLTLLSFDQFQSLGEICFIFFELSFGNAMMVTLVS")
2
>>> class_assignment("YDGGRLIVAIPFVCKVLEQAGRSTVFKPPNPWLMAVVRVLVELYKFAELKLNL")
1
>>> class_assignment("MFFPLVLSKMLICVSFLPVTLLISYLSFFFLFFTGLGLGATAFFFFTFLLYFS")
1
>>> class_assignment("FHFHLHSSISFPFPSLSLPFPFFPTSSSSSSPFLLHLFPFPSLFFPLLLLLLF")
1
>>> class_assignment("KAMGLLDSARIVSWHVSYSLVHLPSWISFAIIYKVRLFVKTNILILLVVHVLF")
1
>>> class_assignment("HPLSWAKFALVMGMLSSLGVLVISTYSVSLSILQFARPLQYIPRFLWTIATLV")
0
>>> class_assignment("MTNFSVALNVHTQIAYHNAEALRLKCMYNASSLLAKLPPHVLALIFLNHANWF")
0
>>> class_assignment("MADEEGASPRELILEACRRNNTSLLEETLADLASSASKAKQDPTGYVAKTLNE")
1
>>> class_assignment("KHPQNTTTDIENEVENPVTDDNGNLKLELPDNLDNADFSKLLEFDAKNDEALF")
0
>>> class_assignment("DLASPSDNDIDEARSREIAAKAVTGILVLLLKWLKLSHILKFEYLTQLLLDSN")
2
>>> class_assignment("SASSPAATSPSACPTSSPRLRSPSSPSPSSQPPASPCTRSCPPPRPAARTARP")
1
>>> class_assignment("QKKLLILCGFGWLADNVSIYHLLSISCWFYYKGTQLYSLFLIRCGYRLWLLFF")
2
>>> class_assignment("SGDADEDGNGHGTHCSGTIAGKKYGVAKKAHVYAVKVLRSNGSGSMSDVVKGV")
0
>>> class_assignment("MFCLRSWLPLLFIPTNASPIFIFLFFICTYFLNRPCVYCSFLLLILFASSCHW")
1
>>> class_assignment("EEAFVAINLRNLLTFGLTYFINDWILDDGVLFVFCILGMLFLVVCLMTIPLWI")
0
>>> class_assignment("RKKRERRERLKRGKKGGKKGDEDGAGDGEKGKGGKVKARVVIREDAEGLGGEG")
0

Where do the numbers come from? From the supplement of paper PMC12636428.
